Would you mind telling me the reported Affinity ELISA CPE mutant ratio (1:9, pH 6.0/7.4) of each entry?
Molecular target: T1, Ax1 protein, extracellular domain (human, UniProt P30530 26-451)
T1 construct: extracellular domain; also called Axl; Ark
T1 sequence (looked up): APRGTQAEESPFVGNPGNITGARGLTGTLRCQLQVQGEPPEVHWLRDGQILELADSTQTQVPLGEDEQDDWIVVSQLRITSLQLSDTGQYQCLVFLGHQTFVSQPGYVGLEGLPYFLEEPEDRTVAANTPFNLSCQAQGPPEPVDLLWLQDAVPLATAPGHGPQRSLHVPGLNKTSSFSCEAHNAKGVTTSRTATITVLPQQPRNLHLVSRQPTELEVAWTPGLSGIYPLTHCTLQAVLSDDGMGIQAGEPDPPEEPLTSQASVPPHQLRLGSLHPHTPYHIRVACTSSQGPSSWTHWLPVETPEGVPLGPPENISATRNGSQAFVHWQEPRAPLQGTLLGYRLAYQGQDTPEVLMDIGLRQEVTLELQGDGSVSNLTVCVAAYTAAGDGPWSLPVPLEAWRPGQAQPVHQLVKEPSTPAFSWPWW
Test: ELISA, mutant diluted 1:9
Form: value (number only, do not type unit).

Please give the measured Affinity ELISA CPE mutant ratio (1:9, pH 6.0/7.4) for this binder: HC-N035I (antibody, V domains shown, CPE single point mutant) VH: EVQLVQSGAEVKKPGATVKISCKVSGYSFTGHTMIWIRQPPGKGLEWIGLIKPSNGGTSYNQKFKGRVTISADKSISTAYLQWSSLKASDTAMYYCAHGHYESYFAMDYWGQGTLVTVSS VL: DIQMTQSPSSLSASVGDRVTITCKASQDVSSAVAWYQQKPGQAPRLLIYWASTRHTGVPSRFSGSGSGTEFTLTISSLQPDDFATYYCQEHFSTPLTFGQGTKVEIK
1.12

What measured Affinity ELISA CPE mutant ratio (1:9, pH 6.0/7.4) goes with LC-F092S (antibody, V domains shown, CPE single point mutant) VH: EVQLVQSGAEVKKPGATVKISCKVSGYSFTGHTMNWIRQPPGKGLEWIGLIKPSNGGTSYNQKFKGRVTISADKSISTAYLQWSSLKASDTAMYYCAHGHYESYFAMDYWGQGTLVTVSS VL: DIQMTQSPSSLSASVGDRVTITCKASQDVSSAVAWYQQKPGQAPRLLIYWASTRHTGVPSRFSGSGSGTEFTLTISSLQPDDFATYYCQEHSSTPLTFGQGTKVEIK ?
2.94

Which Affinity ELISA CPE mutant ratio (1:9, pH 6.0/7.4) is reported for this binder? LC-V029D (antibody, V domains shown, CPE single point mutant) VH: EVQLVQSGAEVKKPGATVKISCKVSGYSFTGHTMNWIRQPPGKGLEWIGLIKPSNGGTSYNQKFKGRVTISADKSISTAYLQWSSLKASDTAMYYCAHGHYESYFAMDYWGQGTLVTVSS VL: DIQMTQSPSSLSASVGDRVTITCKASQDDSSAVAWYQQKPGQAPRLLIYWASTRHTGVPSRFSGSGSGTEFTLTISSLQPDDFATYYCQEHFSTPLTFGQGTKVEIK
2.68
